The measured values listed here are drawn from PubChem BioAssay (NCI).

- System: UACC-62 melanoma
- TEST_DETAILS: NCI-60 one-dose screen, 48 h
- STATED_CONDITIONS: 10 µM unless noted
Compounds without any hit were thinned out: in the full panel of roughly 83,000, 20% have a hit. Active and inactive are the calls of the source. Rule for the calls: active = growth percent below 10; inactive = the rest.
Write down one outcome, taken from active, inactive

Reference set (10 entries):
CN(C)c1nc(-c2cccs2)n2nc(-c3ccco3)cc2n1
inactive
CCCCCCCC/C=C\CCCCCCCC(=O)OCCCCCC
inactive
Nc1cc(C(=O)O)cc(C(=O)O)c1
inactive
CCOC(=O)Cn1c(-c2nonc2NC(=O)c2ccccc2F)nc2ccccc21
inactive
CC(C)c1ccc(-c2cnc3nonc3n2)cc1
inactive
CCCCCCCCN(CCCCCCCC)C(=O)CCl
inactive
COc1cc(CN(c2ccc(C)cc2)C2OC(=O)c3ccccc32)cc(OC)c1OC (stereo unspecified)
inactive
O=C(Nc1ccncc1)C(=O)c1cn(S(=O)(=O)c2cccc(Cl)c2F)c2ccccc12
inactive
S=C(Nc1ccc(Cl)cc1)Nc1ccc(Cl)cc1 (tested in a mixture with another compound)
inactive
CCN(CC)CCNC(=O)n1cc(-c2ccncc2)c(-c2ccc(Cl)c(OC)c2)n1
inactive

Exercise: // return assay outcome for CS(=O)(=O)c1ccc(C(=O)N/N=C/c2cccc3ccccc23)cc1
Key: inactive

Exercise: // return assay outcome for CS(=O)(=O)c1ccc(C(=O)N/N=C/c2ccccc2Cl)cc1
Key: inactive
